Target: human IgEλ (U266 derived) (human, UniProt P01854-1 1-428)
Sequence (P01854 other isoform, or with tags, fused parts or gaps): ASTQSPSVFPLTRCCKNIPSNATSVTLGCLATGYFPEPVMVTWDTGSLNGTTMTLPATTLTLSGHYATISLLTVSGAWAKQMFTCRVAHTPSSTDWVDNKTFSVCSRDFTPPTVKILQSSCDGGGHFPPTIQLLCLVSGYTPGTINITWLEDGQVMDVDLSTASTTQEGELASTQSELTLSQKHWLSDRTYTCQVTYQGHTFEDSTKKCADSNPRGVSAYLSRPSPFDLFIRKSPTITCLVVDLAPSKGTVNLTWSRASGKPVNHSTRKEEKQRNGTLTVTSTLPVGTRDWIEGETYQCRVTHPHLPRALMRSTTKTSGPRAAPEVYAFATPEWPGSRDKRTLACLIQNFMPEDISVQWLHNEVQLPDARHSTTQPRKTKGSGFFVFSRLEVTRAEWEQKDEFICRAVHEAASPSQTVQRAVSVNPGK
Assay: cell-based or functional assay
VALUE KIND: RBL-ER51 calcium signalling IC50 (Geomean), Human IgE (nM)
Reply numerically in nM, unit not repeated.

Example binders with recorded RBL-ER51 calcium signalling IC50 (Geomean), Human IgE:
{"columns": ["BINDER", "VALUE MEASURED"],
 "data": [
  ["Antibody 13 IgG (antibody, V domains shown, Whole human IgG (section 1.4: IgG1)) VH: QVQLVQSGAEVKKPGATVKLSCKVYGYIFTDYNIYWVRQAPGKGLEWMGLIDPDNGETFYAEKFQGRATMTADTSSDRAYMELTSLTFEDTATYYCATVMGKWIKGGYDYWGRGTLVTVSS VL: QSVLTQPPSVSGAPGQRVTISCTGSSSNIGAGYDVHWYQQLPGTAPKLLIYDNFNRPSGVPDRFSGSKSGTSASLAIIGLQTEDEADYYCQSYDSNILYSPFGTGTKLTVL", 0.088],
  ["Antibody 28 IgG (antibody, V domains shown, Whole human IgG (section 1.4: IgG1)) VH: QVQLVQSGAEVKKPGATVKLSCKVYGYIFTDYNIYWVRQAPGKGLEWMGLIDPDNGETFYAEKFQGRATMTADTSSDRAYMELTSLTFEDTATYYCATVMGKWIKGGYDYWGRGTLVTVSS VL: QSVLTQPPSVSGAPGQRVTISCTGSSSNIGAGYDVHWYQQLPGTAPKLLIYDNFNRPSGVPDRFSGSKSGTSASLAIIGLQTEDEADYYCQSYDSSSLHSPFGTGTKLTVL", 0.099]
]}

Task: Requested read-out: RBL-ER51 calcium signalling IC50 (Geomean), Human IgE. Entry: Antibody 5 IgG (antibody, V domains shown, Whole human IgG (section 1.4: IgG1)) VH: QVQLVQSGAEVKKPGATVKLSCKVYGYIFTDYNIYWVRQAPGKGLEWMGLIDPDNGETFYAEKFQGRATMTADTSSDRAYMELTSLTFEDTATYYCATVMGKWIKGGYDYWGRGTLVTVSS VL: QSVLTQPPSVSGAPGQRVTISCTGSSSNIGAGYDVHWYQQLPGTAPKLLIYDNFNRPSGVPDRFSGSKSGTSASLAIIGLQTEDEADYYCQSYDSTKHTSPFGTGTKLTVL
Result: 0.091
